Molecular target: T1, huLRRC15-Fc fusion protein (huLRRC15 ECD residues 22 to 526 of SEQ ID NO:3 fused to Fc) (human, UniProt Q8TF66 22-526)
T1 construct: Coated on the ELISA plate at 2 ug/mL; also called huLRRC15-ECD-Fc; huLRRC15 fusion ECD protein
T1 sequence: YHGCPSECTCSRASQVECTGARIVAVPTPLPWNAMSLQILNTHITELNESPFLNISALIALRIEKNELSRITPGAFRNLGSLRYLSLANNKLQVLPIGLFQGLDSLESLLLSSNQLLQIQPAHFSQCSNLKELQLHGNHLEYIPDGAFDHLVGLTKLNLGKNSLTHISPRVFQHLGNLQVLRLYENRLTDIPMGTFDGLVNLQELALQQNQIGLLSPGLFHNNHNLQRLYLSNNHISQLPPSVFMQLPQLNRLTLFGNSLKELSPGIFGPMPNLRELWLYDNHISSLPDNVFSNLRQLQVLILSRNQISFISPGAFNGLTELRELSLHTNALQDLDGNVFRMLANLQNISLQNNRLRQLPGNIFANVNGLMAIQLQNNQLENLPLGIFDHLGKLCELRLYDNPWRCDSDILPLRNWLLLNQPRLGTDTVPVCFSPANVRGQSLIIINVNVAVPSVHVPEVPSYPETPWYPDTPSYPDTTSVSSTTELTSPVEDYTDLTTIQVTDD
Assay: ELISA on coated huLRRC15-ECD-Fc
Metric: EC50 (pM)
Note: unit pM is implicit; provide only the numeric part.

Binder | EC50 / pM
muAD209.9.1 (antibody, V domains shown, Murine antibody; Compared with a muIgG2a isotype control) VH: QIQLVQSGPELKKPGETVKISCKASGFAITNFGMNWVKQAPGKGLKWMGWINLYTGEPTFADDFKGRFAFSLETSASTAYLQINNLKNEDTVIYFCARKGETYYRYDGFAYWGQGTLVTVSA VL: DIVMTQAAPSVPVTPGESVSISCRSSKSLLHSNGNTHLYWFLQRPGQSPQLLIYRMSNLASGVPDRFSGSGSGTAFTLRISRVEAEDVGVYYCMQLLEYPYTFGGGTKLEIE | 140
huAD208.4.1 (antibody, V domains shown, Humanized full-length antibody, compared with a huIgG1 isotype control) VH: EVQLVQSGAEVKKPGSSVKVSCKASGFTFTDYYIHWVKQAPGQGLEWIGLVYPYIGGTNYNQKFKGKATLTVDTSTTTAYMEMSSLRSEDTAVYYCARGDNKYDAMDYWGQGTTVTVSS VL: DIVLTQSPDSLAVSLGERATINCRASQSVSTSSYSYMHWYQQKPGQPPKLLIKYASSLESGVPDRFSGSGSGTDFTLTISSLQAEDVAVYYCEQSWEIRTFGGGTKVEIK | 250
hu139.10 (antibody, V domains shown, Humanized full-length antibody; Compared with a huIgG1 isotype control) VH: EVQLVESGGGLVQPGGSLRLSCAVSGFSLTSYGVHWVRQATGKGLEWLGVIWAGGSTNYNSALMSRLTISKENAKSSVYLQMNSLRAGDTAMYYCATHMITEDYYGMDYWGQGTTVTVSS VL: DIVMTQSPDSLAVSLGERATINCKSSQSLLNSRTRKNYLAWYQQKPGQSPKLLIYWASTRESGVPDRFSGSGSGTDFTLTISSLQAEDVAVYYCKQSYNLPTFGGGTKVEIK | 110

Tell me the measured EC50 of huAD208.14.1 (antibody, V domains shown, Humanized full-length antibody; Compared with a huIgG1 isotype control) VH: EVQLVQSGAEVKKPGSSVKVSCKASGFTFTDYYIHWVKQAPGQGLEWIGLVYPYIGGSSYNQQFKGKATLTVDTSTSTAYMELSSLRSEDTAVYYCARGDNNYDAMDYWGQGTTVTVSS VL: DIVLTQSPDSLAVSLGERATISCRASQSVSTSTYNYMHWYQQKPGQPPKLLVKYASNLESGVPDRFSGSGSGTDFTLTISSLQAEDVAVYYCHHTWEIRTFGGGTKVEIK , please.
800

Data credit: patent US20170151343A1
